Provide the recorded Dose.FC.LYZ.S (log 2 fold change, carbachol-induced lysozyme secretion) for the entries that follow.
Test system: ISC-enriched organoids
Assay: Primary screen, 384-well 2.5-D organoid differentiation (ENR+CD, 6 days): carbachol-induced lysozyme secretion (LYZ.S)
Type: cell-based, murine
Details: dose 10.00 uM; vs plate median
Keep it simple and answer with nothing but the number.

I'd like to know its Dose.FC.LYZ.S (log 2 fold change, carbachol-induced lysozyme secretion). The molecule in question is "CS(=O)(=O)c1ccc(-c2cnc(N)c(C(=O)Nc3ccccc3)n2)cc1"
−0.429

How about this molecule: Cl.Cl.Cl.O[C@@H](COc1cccc2ncccc12)CN1CCN([C@@H]2c3ccccc3[C@@H]3[C@H](c4ccccc42)C3(F)F)CC1 [Zosuquidar (LY335979) 3HCl]
−0.200

How about this molecule: "Cc1cc(C)nc(NS(=O)(=O)c2ccc(NC(=S)NC(=O)COc3ccc(Br)cc3Cl)cc2)n1"
−0.080

How about this molecule: "Cc1cc(-c2ccc(CC(=O)Nc3ccc(-c4cccnc4)cc3)cc2)ccn1"
−0.301

How about this molecule: "COc1cc2c(Nc3ccc(NC(=O)c4ccccc4)cc3)ncnc2cc1OCCCN1CCOCC1"
−0.132

###

System: ISC-enriched organoids
Experiment: Primary screen, 384-well 2.5-D organoid differentiation (ENR+CD, 6 days, Target Selective Inhibitor Library, vs whole-plate median): ATP (CellTiter-Glo 3D, CTG)
Settings: strictly standardized mean difference; primary screen; 4th of the 4 dose lines of the treatment (dose not given)
Structures can show the parent of a compound that is named as a salt.
Provide the recorded SSMD.CTG for the entries that follow.
Keep it simple and answer with nothing but the number.

I'd like to know its SSMD.CTG. The compound in question is "Cc1cccc(-c2nn3c(c2-c2ccnc4ccc(C(N)=O)cc24)CCC3)n1"
0.314

How about this compound: "c1cc(-c2cnn3cc(-c4ccc(N5CCNCC5)cc4)cnc23)c2cccnc2c1"
−1.589

How about this compound: "CCCC(=O)Nc1cccc(NC(=O)c2ccccc2Br)c1"
−0.107

How about this compound: "N#Cc1ccc(C(c2ccc(C#N)cc2)n2cncn2)cc1"
0.606

How about this compound: "COc1cc(-n2c(=S)[nH]c3ccccc3c2=O)c(Cl)cc1Cl"
−1.838

How about this compound: "CC[C@H](C)C(=O)O[C@H]1C[C@@H](C)C=C2C=C[C@H](C)[C@H](CC[C@@H]3C[C@@H](O)CC(=O)O3)[C@H]21"
−1.911

How about this compound: CCN1CCC[C@H]1CNC(=O)c1cc(S(N)(=O)=O)ccc1OC [Levosulpiride]
0.297

How about this compound: O=C(NCCN1CCOCC1)c1ccc(Cl)cc1 [Moclobemide (Ro 111163)]
0.115

How about this compound: "CC(C)c1ccc(NC(=O)Cn2cnc3c2c(=O)n(C)c(=O)n3C)cc1"
−0.715

How about this compound: CCc1c2c(nc3ccc(OC(=O)N4CCC(N5CCCCC5)CC4)cc13)-c1cc3c(c(=O)n1C2)COC(=O)[C@]3(O)CC [Irinotecan HCl Trihydrate]
−1.809

How about this compound: "COc1cc(-c2ncn(/C=C\C(=O)OC(C)C)n2)cc(C(F)(F)F)c1"
−0.723

How about this compound: "Oc1ccc2ccccc2c1SSc1c(O)ccc2ccccc12"
−0.172

How about this compound: "CC(C)(C)Cn1c(N)nc2ccc(-c3[nH]c(C(C)(C)C)nc3-c3ccc(F)cc3)nc21"
−0.937

How about this compound: "CC(C)(C)c1cc(C(C)(C)C)c(NC(=O)c2c[nH]c3ccccc3c2=O)cc1O"
−1.317

How about this compound: "CNC(=O)[C@H](Cc1c[nH]c2ccccc12)NC(=O)[C@@H](CC(=O)NO)CC(C)C"
−0.348

How about this compound: O=C(C[S+]([O-])Cc1ccco1)NC/C=C\COc1cc(CN2CCCCC2)ccn1 (stereo not drawn)
−0.249

How about this compound: "C#Cc1cccc(Nc2ncnc3cc4c(cc23)OCCOCCOCCO4)c1"
−3.189

How about this compound: "O=C(O)CCc1ccc(NCc2cccc(Oc3ccccc3)c2)cc1"
−0.134
